B1: Azoarcus group I ribozyme (parent)
chain: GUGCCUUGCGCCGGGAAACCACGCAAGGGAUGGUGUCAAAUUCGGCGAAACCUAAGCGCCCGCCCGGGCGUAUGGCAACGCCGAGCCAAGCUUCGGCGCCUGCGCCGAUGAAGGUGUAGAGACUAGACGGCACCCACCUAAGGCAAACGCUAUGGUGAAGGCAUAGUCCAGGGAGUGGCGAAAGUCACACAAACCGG

Variants of: B1
PROTOCOL_DETAILS: reverse-splicing fitness (ratio to wild type); higher = more active; in vitro selection; Mg2+ level not given
Cut-off 0.006 on reverse-splicing fitness, inclusive. At or above means class 1; below means class 0.

## Task # check: reverse-splicing fitness of C82U A111G A145U U176A is greater than or equal to 0.006
## Result class 1

## Task # check: reverse-splicing fitness of C82U A111G A120G A145G C150G U176C is greater than or equal to 0.006
## Result class 1

## Task # check: reverse-splicing fitness of C82G A120C C150G C169U U176C is greater than or equal to 0.006
## Result class 1

## Task # check: reverse-splicing fitness of C82U A111U A120U A145U C150A C169U U176C is greater than or equal to 0.006
## Result class 0

## Task # check: reverse-splicing fitness of C82A A120G A145U C169A is greater than or equal to 0.006
## Result class 1

## Task # check: reverse-splicing fitness of C82G A111U A145G C150A C169G U176G is greater than or equal to 0.006
## Result class 1

## Task # check: reverse-splicing fitness of A111U C150G C169U is greater than or equal to 0.006
## Result class 1

## Task # check: reverse-splicing fitness of C82U A111C A120G A145C C150G U176A is greater than or equal to 0.006
## Result class 1

## Task # check: reverse-splicing fitness of C82A A111U A120G A145G C150U U176G is greater than or equal to 0.006
## Result class 1

## Task # check: reverse-splicing fitness of C82A A120U A145G C150U U176G is greater than or equal to 0.006
## Result class 1

## Task # check: reverse-splicing fitness of C82A A111C A145U C150A C169G is greater than or equal to 0.006
## Result class 1

## Task # check: reverse-splicing fitness of C82G A111G A120U A145U C150G U176A is greater than or equal to 0.006
## Result class 0

## Task # check: reverse-splicing fitness of A111C A120G C169U is greater than or equal to 0.006
## Result class 1

## Task # check: reverse-splicing fitness of C82U A111G A145G C150U U176G is greater than or equal to 0.006
## Result class 1

## Task # check: reverse-splicing fitness of C82U A111C A120C A145C C169U U176A is greater than or equal to 0.006
## Result class 1

## Task # check: reverse-splicing fitness of A111U A120G A145C C169U is greater than or equal to 0.006
## Result class 1

## Task # check: reverse-splicing fitness of A111U A120C A145U C150U C169U is greater than or equal to 0.006
## Result class 1

## Task # check: reverse-splicing fitness of A111U A120C A145U C150G U176G is greater than or equal to 0.006
## Result class 0

## Task # check: reverse-splicing fitness of C82U A111C A120U A145U C150A C169A U176A is greater than or equal to 0.006
## Result class 0

## Task # check: reverse-splicing fitness of A111G A145G C150U U176G is greater than or equal to 0.006
## Result class 1

## Task # check: reverse-splicing fitness of C82A A111C A120C A145C C150A U176G is greater than or equal to 0.006
## Result class 0

## Task # check: reverse-splicing fitness of C82U A111U A120U A145G C150A C169G U176G is greater than or equal to 0.006
## Result class 0

## Task # check: reverse-splicing fitness of C82G A111C A120G A145C C150A C169A U176A is greater than or equal to 0.006
## Result class 1

## Task # check: reverse-splicing fitness of C82A A120U A145C C169U U176C is greater than or equal to 0.006
## Result class 0

## Task # check: reverse-splicing fitness of C82A A111G A120G A145U C150G C169A is greater than or equal to 0.006
## Result class 1

## Task # check: reverse-splicing fitness of A111C A120G C150G U176A is greater than or equal to 0.006
## Result class 1

## Task # check: reverse-splicing fitness of C82A A111G A120C C169G U176G is greater than or equal to 0.006
## Result class 0

## Task # check: reverse-splicing fitness of C82G A111C A120C C150A C169G U176C is greater than or equal to 0.006
## Result class 1

## Task # check: reverse-splicing fitness of C82A A111G A120U A145U U176C is greater than or equal to 0.006
## Result class 1

## Task # check: reverse-splicing fitness of C82U A111U A120G A145C C150U U176A is greater than or equal to 0.006
## Result class 1

## Task # check: reverse-splicing fitness of C82A A120U C150U C169A U176C is greater than or equal to 0.006
## Result class 0

## Task # check: reverse-splicing fitness of C82G A111C A120C A145C C150U C169G U176C is greater than or equal to 0.006
## Result class 1

## Task # check: reverse-splicing fitness of C82U A111C A120U A145U C150G C169A U176G is greater than or equal to 0.006
## Result class 0

## Task # check: reverse-splicing fitness of C82U A111C A120C A145G C150U C169G U176A is greater than or equal to 0.006
## Result class 1

## Task # check: reverse-splicing fitness of C82A A111U C150G C169G is greater than or equal to 0.006
## Result class 1

## Task # check: reverse-splicing fitness of C82U A111U A120U A145U C150U U176C is greater than or equal to 0.006
## Result class 1

## Task # check: reverse-splicing fitness of A111C A120U A145U C150U C169U U176A is greater than or equal to 0.006
## Result class 1

## Task # check: reverse-splicing fitness of C82G A145G C150G C169A U176G is greater than or equal to 0.006
## Result class 1

## Task # check: reverse-splicing fitness of C82A A111G A120C C150G U176A is greater than or equal to 0.006
## Result class 1

## Task # check: reverse-splicing fitness of C82U A111C A145C C150U is greater than or equal to 0.006
## Result class 1

## Task # check: reverse-splicing fitness of C82U A111U A120G A145C C150A U176G is greater than or equal to 0.006
## Result class 0

## Task # check: reverse-splicing fitness of C82U A111U A120U A145U C169U U176C is greater than or equal to 0.006
## Result class 0

Ref: the RNAGym collection of RNA variant scans (doi:10.1093/molbev/msab373)
